molecular target: BChE (E.C. 3.1.1.8) (Equus caballus, UniProt P81908); assay: biochemical; conditions: BChE from horse serum; Ellman method; means ± SD of triplicate independent experiments
Sequence (P81908 whole entry): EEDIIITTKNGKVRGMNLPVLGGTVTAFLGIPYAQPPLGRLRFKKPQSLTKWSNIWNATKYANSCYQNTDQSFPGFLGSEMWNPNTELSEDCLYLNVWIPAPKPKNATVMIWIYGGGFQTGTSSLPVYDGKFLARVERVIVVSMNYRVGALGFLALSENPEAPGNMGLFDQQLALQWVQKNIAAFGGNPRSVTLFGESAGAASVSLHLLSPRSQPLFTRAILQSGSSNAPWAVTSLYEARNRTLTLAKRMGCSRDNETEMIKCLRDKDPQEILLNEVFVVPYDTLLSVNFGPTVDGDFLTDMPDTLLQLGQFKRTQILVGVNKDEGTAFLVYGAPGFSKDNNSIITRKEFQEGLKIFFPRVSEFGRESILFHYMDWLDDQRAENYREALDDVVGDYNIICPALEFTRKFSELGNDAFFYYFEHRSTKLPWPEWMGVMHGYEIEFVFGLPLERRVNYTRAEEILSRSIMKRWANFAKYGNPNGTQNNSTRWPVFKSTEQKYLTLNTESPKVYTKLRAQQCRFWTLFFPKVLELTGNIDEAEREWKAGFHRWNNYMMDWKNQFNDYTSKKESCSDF
Catalogue of IC50 values
The reply should be a number in µM, with the unit left off.

Solved entries:
| Compound | Result number |
| --- | --- |
| O=c1c2cc(-c3cccc(Cl)c3)ccc2nc2n1CCC2 [3g] | 22.2 |
| O=c1c2cc(-c3cccc(Cl)c3)ccc2nc2n1CCCC2 [4g] | 22.9 |
| Cc1ccccc1-c1ccc2nc3n(c(=O)c2c1)CCC3 [3j] | 11.1 |
| O=c1c2cc(-c3ccc(F)cc3)ccc2nc2n1CCC2 [3b] | 15.5 |
| O=c1c2cc(-c3cccc4ccccc34)ccc2nc2n1CCC2 [3m] | 32 |

Problem: Return IC50 measured with BChE (E.C. 3.1.1.8) (Equus caballus, UniProt P81908) given this compound: COc1cccc(-c2ccc3nc4n(c(=O)c3c2)CCC4)c1 [3h]
Solution: 41.8
